- system: NTR1 (Homo sapiens, UniProt P30989)
- Sequence (P30989 whole entry): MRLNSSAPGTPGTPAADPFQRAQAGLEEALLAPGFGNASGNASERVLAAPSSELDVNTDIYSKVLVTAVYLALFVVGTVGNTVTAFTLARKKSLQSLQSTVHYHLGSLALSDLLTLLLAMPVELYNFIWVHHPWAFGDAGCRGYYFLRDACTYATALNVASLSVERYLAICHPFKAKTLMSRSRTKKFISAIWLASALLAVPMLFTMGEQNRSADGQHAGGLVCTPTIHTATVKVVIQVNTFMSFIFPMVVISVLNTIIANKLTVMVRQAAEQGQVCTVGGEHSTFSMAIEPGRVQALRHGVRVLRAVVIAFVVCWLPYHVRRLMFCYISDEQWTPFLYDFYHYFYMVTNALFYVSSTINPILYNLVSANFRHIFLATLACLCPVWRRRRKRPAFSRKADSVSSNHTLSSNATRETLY
- experimental.details: ^125I-NT binding to isolated PC3 cell membranes
- Design: Ab-NTR1 detected two major bands in extracts of PC3 cells, the parent protein of 50 kDa; endogenous in cells; host or cells: PC3 cells (ATCC)
- experimental.parameters: 75 μM LOX pathway blocker
Specific NT-Binding (% control) listing for selected compounds.
readout: Specific NT-Binding (% control)

INSERT INTO measurements (compound, data_value) VALUES
  ('CC1=C(C)C(=O)C(CCCCC#CCCCC#CCO)=C(C)C1=O [AA861]', '110 ± 5 % control'),
  ('CCCCCC(O)c1cccc(OCc2ccc3ccccc3n2)c1 (centres unmarked) [Rev5901]', '110 ± 5 % control'),
  ('CC1=C(/C=C/C(C)=C/C=C/C(C)=C/C(=O)O)C(C)(C)CCC1 [Retinoic Acid, retinoic acid]', '142 ± 8 % control'),
  ('CC(Cc1ccc(O)c(O)c1)C(C)Cc1ccc(O)c(O)c1 (centres unmarked) [NDGA, Nordihydroguaiaretic acid]', '132 ± 10 % control'),
  ('CC(C)c1ccc2c(c1)c(SC(C)(C)C)c(CC(C)(C)C(=O)O)n2Cc1ccc(Cl)cc1 [MK886]', '97 ± 4 % control');
